Listing of recorded NHEJ repair efficiency (log10) by entry.
# Test system: CLZ3 (HCA2 human fibroblast dual HR-NHEJ reporter)
# assay-text: NHEJ repair efficiency (GFP+ cells) relative to control (log10 fold); higher = more non-homologous end joining
# experimental-parameters: 5 µM; doxycycline 0.5 ug/mL
Counter-ions that a name gives are not always drawn.
Please give the numeric answer without any surrounding text.

// known answers, use as guide
C=CC(C)(C)c1cc(/C=C/C(=O)c2ccc(O)cc2)c(OC)cc1O [Licochalcone A] ... -0.106
CC1(C)O[C@H]1COc1c2ccoc2cc2oc(=O)ccc12 [Oxypeucedanin] ... 0.0689
O=C(/C=C/c1ccc(O)c(O)c1)OC[C@H]1O[C@@H](OCCc2ccc(O)c(O)c2)[C@H](O)[C@@H](O)[C@@H]1O [Calceolarioside B] ... -0.0242
O=c1cc(-c2ccc(O)cc2)oc2cc(O)c(O)c(O)c12 [Scutellarein] ... -0.103
C/C1=C/CC[C@H](C)C(=O)C[C@@H](C(C)C)C(=O)C1 [Curdione] ... -0.0258

Input line: For the compound Cc1nc(C)c(C)nc1C [Ligustrazine hydrochloride] , what NHEJ repair efficiency (log10) is on record?
Output line: 0.0819

Input line: For the compound O=C1C[C@@H](c2ccc(O)cc2)Oc2cc(O)cc(O)c21 [Naringenin] , what NHEJ repair efficiency (log10) is on record?
Output line: -0.176

Input line: For the compound CC1OC(OC2C(C)OC(OC(=O)C34CCC(C)(C)CC3C3=CCC5C6(C)CCC(OC7OC(C(=O)O)C(OC8OC(CO)C(OC9OC(CO)C(O)C(O)C9O)C(O)C8O)C(OC8OCC(O)C(O)C8O)C7O)C(C)(C=O)C6CCC5(C)C3(C)CC4)C(OC3OCC(O)C(O)C3OC3OCC(O)C(O)C3O)C2O)C(O)C(OC2OCC(O)C(O)C2O)C1O (configuration not stated) [Gypenoside] , what NHEJ repair efficiency (log10) is on record?
Output line: 0.0642

Input line: For the compound O=Cc1ccc(O)c(O)c1 [Protocatechuic aldehyde] , what NHEJ repair efficiency (log10) is on record?
Output line: -0.212

Input line: For the compound C=C1C2CCC3(C4C[C@H]5C6(CCC[C@@]5(C)CN(CC)C46)[C@H]3[C@H]2O)[C@@H]1O [Bullatine A] , what NHEJ repair efficiency (log10) is on record?
Output line: -0.197

Input line: For the compound CC(C)[C@@H](C)/C=C/[C@@H](C)[C@H]1CC[C@H]2C3=CC=C4C[C@@H](O)CC[C@]4(C)[C@H]3CC[C@]12C [Ergosterol] , what NHEJ repair efficiency (log10) is on record?
Output line: 0.00511

Input line: For the compound COc1cc2c(cc1OC)[C@H]1[C@@H](C)c3ccc(OC)c(OC)c3CN1CC2 [Corydaline] , what NHEJ repair efficiency (log10) is on record?
Output line: -0.196

Input line: For the compound O=c1ccc2ccc(O)cc2o1 [Umbelliferone] , what NHEJ repair efficiency (log10) is on record?
Output line: 0.115

Input line: For the compound NCC(=O)O [Aminoacetic acid] , what NHEJ repair efficiency (log10) is on record?
Output line: 0.185

Input line: For the compound O=Cc1ccc(O)cc1 [4-Hydroxybenzaldehyde] , what NHEJ repair efficiency (log10) is on record?
Output line: 0.0829

Input line: For the compound CC(CCC(OC1OC(CO)C(O)C(O)C1OC1OC(CO)C(O)C(O)C1O)C(C)(C)O)C1CCC2(C)C3CC=C4C(CCC(OC5OC(COC6OC(CO)C(O)C(O)C6O)C(O)C(O)C5O)C4(C)C)C3(C)C(O)CC12C (configuration not stated) [Mogroside IV] , what NHEJ repair efficiency (log10) is on record?
Output line: 0.0766

Input line: For the compound O=c1cc(-c2ccc(O)c(O)c2)oc2cc(O)c([C@@H]3O[C@H](CO)[C@@H](O)[C@H](O)[C@H]3O)c(O)c12 [Isoorientin] , what NHEJ repair efficiency (log10) is on record?
Output line: -0.0953

Input line: For the compound COc1c(O[C@@H]2O[C@H](C(=O)O)[C@@H](O)[C@H](O)[C@H]2O)cc(O)c2c(=O)cc(-c3ccccc3)oc12 [Wogonoside] , what NHEJ repair efficiency (log10) is on record?
Output line: -0.0783

Input line: For the compound CCCCC/C=C\C/C=C\CCCCCCCC(=O)O [Linoleic Acid] , what NHEJ repair efficiency (log10) is on record?
Output line: 0.0448

Input line: For the compound COc1c(O)cc2oc(-c3ccccc3)cc(=O)c2c1O [Oroxylin A] , what NHEJ repair efficiency (log10) is on record?
Output line: 0.0844

Input line: For the compound O=C(O[C@@H]1Cc2c(O)cc(O)cc2O[C@@H]1c1ccc(O)c(O)c1)c1cc(O)c(O)c(O)c1 [Epicatechin Gallate] , what NHEJ repair efficiency (log10) is on record?
Output line: -0.236

Input line: For the compound C=CCc1ccc(OC)c(OC)c1 [Methyleugenol] , what NHEJ repair efficiency (log10) is on record?
Output line: 0.14

Input line: For the compound COc1ccc([C@@H]2CC(=O)c3c(O)cc(O[C@@H]4O[C@H](CO)[C@@H](O)[C@H](O)[C@H]4O[C@@H]4O[C@@H](C)[C@H](O)[C@@H](O)[C@H]4O)cc3O2)cc1O [Neohesperidin] , what NHEJ repair efficiency (log10) is on record?
Output line: -0.0783

Input line: For the compound COc1cc2c(cc1OC)[C@@H]1Cc3ccc(OC)c(OC)c3CN1CC2 [Rotundine] , what NHEJ repair efficiency (log10) is on record?
Output line: -0.0594

Input line: For the compound O=Cc1ccc(O[C@@H]2O[C@H](CO)[C@@H](O)[C@@H](O)[C@H]2O)cc1 [Helicide] , what NHEJ repair efficiency (log10) is on record?
Output line: 0.119

Input line: For the compound COc1cc2c(=O)c(-c3ccc(O)cc3)coc2cc1O [Glycitein] , what NHEJ repair efficiency (log10) is on record?
Output line: 0.0336

Input line: For the compound CN1Cc2c(ccc3c2OCO3)[C@@]2(C)[C@@H](O)Cc3cc4c(cc3[C@@H]12)OCO4 [Corynoline] , what NHEJ repair efficiency (log10) is on record?
Output line: -0.128

====

Listing of recorded HR repair efficiency (log10) by entry.
# Test system: CLZ3 (HCA2 human fibroblast dual HR-NHEJ reporter)
# assay-text: HR repair efficiency (tdTomato+ cells) relative to control (log10 fold); higher = more homologous recombination
# experimental-parameters: 5 µM; doxycycline 0.5 ug/mL
Where a name gives a salt, the structure may show the parent alone.
Please give the numeric answer without any surrounding text.

// known answers, use as guide
COc1cc2c(cc1OC)-c1cc3ccc4c(c3c[n+]1CC2)OCO4 [Epiberberine] ... 0.05
COC(=O)C1=CO[C@@H](O)[C@@H]2C(CO)=CC[C@H]12 [Genipin] ... 0.00524
O=c1c(O)c(-c2ccc(O)c(O)c2)oc2cc(O)cc(O)c12 [Quercetin] ... 0.086
O=C(/C=C/c1ccc(O)c2c1[C@H](C(=O)O)[C@@H](c1ccc(O)c(O)c1)O2)O[C@H](Cc1ccc(O)c(O)c1)C(=O)O [Lithospermic acid] ... 0.0325

Input line: I'm curious: which HR repair efficiency (log10) was measured for COc1ccc2c(c1O)-c1c(O)c(OC)cc3c1[C@H](C2)[N+](C)(C)CC3 [Magnoflorine hydrochloride] tested on CLZ3 (HCA2 human fibroblast dual HR-NHEJ reporter)?
Output line: -0.0478

Input line: I'm curious: which HR repair efficiency (log10) was measured for COc1cc([C@H]2OC[C@H]3[C@@H]2CO[C@H]3c2ccc(OC)c(OC)c2)ccc1O [Phillygenin] tested on CLZ3 (HCA2 human fibroblast dual HR-NHEJ reporter)?
Output line: 0.116

Input line: I'm curious: which HR repair efficiency (log10) was measured for COc1cc(O)c(C(C)=O)cc1S(=O)(=O)O [Sodium Paeonol Sulfonate] tested on CLZ3 (HCA2 human fibroblast dual HR-NHEJ reporter)?
Output line: 0.0512

Input line: I'm curious: which HR repair efficiency (log10) was measured for OCC1=C[C@@H](O)[C@@H]2C=CO[C@@H](O[C@@H]3O[C@H](CO)[C@@H](O)[C@H](O)[C@H]3O)[C@H]12 [Aucubin] tested on CLZ3 (HCA2 human fibroblast dual HR-NHEJ reporter)?
Output line: 0.121

====

# System: CLZ3 (HCA2 human fibroblast dual HR-NHEJ reporter)
# assay-text: HR repair efficiency (tdTomato+ cells) relative to control (log10 fold); higher = more homologous recombination
# experimental-parameters: 5 µM; doxycycline 0.5 ug/mL
property: HR repair efficiency (log10)
Please give the numeric answer without any surrounding text.

// known answers, use as guide
O=C(O)c1cc(O)c2c(c1)C(=O)c1cccc(O)c1C2=O ... -0.07
COC(=O)C1=CO[C@@H](O[C@@H]2O[C@H](CO)[C@@H](O)[C@H](O)[C@H]2O)[C@@H]2[C@H](C)O[C@@H](O)C[C@H]12 [Morroniside] ... 0.186

Input line: For the compound CC(=O)OCC1=C[C@@H]2OC(=O)C3=CO[C@@H](O[C@@H]4O[C@H](CO)[C@@H](O)[C@H](O)[C@H]4O)[C@H]1[C@@H]32 [Asperuloside] , what HR repair efficiency (log10) is on record?
Output line: 0.1

Input line: For the compound O=Cc1ccc(CO)o1 [5-Hydroxymethylfurfural] , what HR repair efficiency (log10) is on record?
Output line: 0.0126

Input line: For the compound CC=C1[C@H](O[C@@H]2O[C@H](CO)[C@@H](O)[C@H](O)[C@H]2O)OC=C(C(=O)OC)[C@H]1CC(=O)OC[C@H]1O[C@@H](OCCc2ccc(O)cc2)[C@H](O)[C@@H](O)[C@@H]1O (stereo in doubt) [Specnuezhenide] , what HR repair efficiency (log10) is on record?
Output line: 0.0832

Input line: For the compound "COc1cc(C=O)ccc1O" , what HR repair efficiency (log10) is on record?
Output line: -0.154

Input line: For the compound OC[C@H]1O[C@@H](Oc2c(O)cc(O)cc2/C=C/c2ccc(O)cc2)[C@H](O)[C@@H](O)[C@@H]1O [2,3,5,4'-Tetrahydroxy Stilbene 2-Ο-Β-D-Glucoside] , what HR repair efficiency (log10) is on record?
Output line: -0.0324

Input line: For the compound "C[C@H](CCC(=O)NCCS(=O)(=O)O)[C@H]1CC[C@H]2[C@@H]3C[C@H](O)[C@@H]4C[C@H](O)CC[C@]4(C)[C@H]3CC[C@]12C" , what HR repair efficiency (log10) is on record?
Output line: 0.133

Input line: For the compound "O=Cc1ccc(O)c(O)c1" , what HR repair efficiency (log10) is on record?
Output line: -0.256

Input line: For the compound OC[C@H]1O[C@@H](Oc2cc3c(O)cc(O)cc3[o+]c2-c2ccc(O)c(O)c2)[C@H](O)[C@@H](O)[C@@H]1O [Cyanidin3-o-glucoside] , what HR repair efficiency (log10) is on record?
Output line: 0.142

Input line: For the compound COc1ccc(CCO[C@@H]2O[C@H](CO[C@@H]3OC[C@H](O)[C@H](O)[C@H]3O)[C@@H](OC(=O)/C=C/c3ccc(O)c(OC)c3)[C@H](O[C@@H]3O[C@@H](C)[C@@H](O)[C@@H](O)[C@H]3O)[C@H]2O)cc1O [Angoroside C] , what HR repair efficiency (log10) is on record?
Output line: 0.3

Input line: For the compound "CC(=O)S[C@@H]1CC2=CC(=O)CC[C@]2(C)[C@H]2CC[C@@]3(C)[C@@H](CC[C@@]34CCC(=O)O4)[C@H]12" , what HR repair efficiency (log10) is on record?
Output line: -0.0059

Input line: For the compound "O=c1cc(-c2ccc(O)cc2)oc2c([C@@H]3O[C@H](CO)[C@@H](O)[C@H](O)[C@H]3O)c(O)cc(O)c12" , what HR repair efficiency (log10) is on record?
Output line: 0.126
